# SUBJECT_OF_TEST: voltage-dependent T-type calcium channel subunit alpha-1G (Cav3.2) (Homo sapiens)
# ASSAY_NAME: FLIPR calcium flux assay, HEK293 cells recombinantly expressing Cav3.2
# PROTOCOL_CONDITIONS: Cav3.2-channel, Fluo-4-AM, 3 min incubation, stimulation with 10 mM CaCl2
PARAMETER: log10(IC50) (log10 of the value in nM)

COMPOUND_STRUCTURE	SUBJECT_OF_TEST	ASSAY_VALUE
CCN(C)c1ccc(CC(=O)Nc2ccn(Cc3ccc(F)c(F)c3)n2)cn1	voltage-dependent T-type calcium channel subunit alpha-1G (Cav3.2) (Homo sapiens)	1.18
N#Cc1cc(Cn2ccc(NC(=O)Cc3ccc(N4CCC(F)(F)C4)nc3)n2)ccc1F	voltage-dependent T-type calcium channel subunit alpha-1G (Cav3.2) (Homo sapiens)	1.23
CCN(C)c1ccc(CC(=O)Nc2ccn(Cc3ccc(OC)cc3)n2)cn1	voltage-dependent T-type calcium channel subunit alpha-1G (Cav3.2) (Homo sapiens)	2.50
Cn1ncc2cc(CC(=O)Nc3ccn(Cc4ccc(C#N)cn4)n3)ccc21	voltage-dependent T-type calcium channel subunit alpha-1G (Cav3.2) (Homo sapiens)	2.47
N#Cc1ccc(Cn2ccc(NC(=O)Cc3ccc(N4CC(F)(F)C4)nc3)n2)nc1	voltage-dependent T-type calcium channel subunit alpha-1G (Cav3.2) (Homo sapiens)	2.27

* * *

# SUBJECT_OF_TEST: voltage-dependent T-type calcium channel subunit alpha-1G (Cav3.2) (Homo sapiens, UniProt O95180)
# Sequence (O95180 whole entry): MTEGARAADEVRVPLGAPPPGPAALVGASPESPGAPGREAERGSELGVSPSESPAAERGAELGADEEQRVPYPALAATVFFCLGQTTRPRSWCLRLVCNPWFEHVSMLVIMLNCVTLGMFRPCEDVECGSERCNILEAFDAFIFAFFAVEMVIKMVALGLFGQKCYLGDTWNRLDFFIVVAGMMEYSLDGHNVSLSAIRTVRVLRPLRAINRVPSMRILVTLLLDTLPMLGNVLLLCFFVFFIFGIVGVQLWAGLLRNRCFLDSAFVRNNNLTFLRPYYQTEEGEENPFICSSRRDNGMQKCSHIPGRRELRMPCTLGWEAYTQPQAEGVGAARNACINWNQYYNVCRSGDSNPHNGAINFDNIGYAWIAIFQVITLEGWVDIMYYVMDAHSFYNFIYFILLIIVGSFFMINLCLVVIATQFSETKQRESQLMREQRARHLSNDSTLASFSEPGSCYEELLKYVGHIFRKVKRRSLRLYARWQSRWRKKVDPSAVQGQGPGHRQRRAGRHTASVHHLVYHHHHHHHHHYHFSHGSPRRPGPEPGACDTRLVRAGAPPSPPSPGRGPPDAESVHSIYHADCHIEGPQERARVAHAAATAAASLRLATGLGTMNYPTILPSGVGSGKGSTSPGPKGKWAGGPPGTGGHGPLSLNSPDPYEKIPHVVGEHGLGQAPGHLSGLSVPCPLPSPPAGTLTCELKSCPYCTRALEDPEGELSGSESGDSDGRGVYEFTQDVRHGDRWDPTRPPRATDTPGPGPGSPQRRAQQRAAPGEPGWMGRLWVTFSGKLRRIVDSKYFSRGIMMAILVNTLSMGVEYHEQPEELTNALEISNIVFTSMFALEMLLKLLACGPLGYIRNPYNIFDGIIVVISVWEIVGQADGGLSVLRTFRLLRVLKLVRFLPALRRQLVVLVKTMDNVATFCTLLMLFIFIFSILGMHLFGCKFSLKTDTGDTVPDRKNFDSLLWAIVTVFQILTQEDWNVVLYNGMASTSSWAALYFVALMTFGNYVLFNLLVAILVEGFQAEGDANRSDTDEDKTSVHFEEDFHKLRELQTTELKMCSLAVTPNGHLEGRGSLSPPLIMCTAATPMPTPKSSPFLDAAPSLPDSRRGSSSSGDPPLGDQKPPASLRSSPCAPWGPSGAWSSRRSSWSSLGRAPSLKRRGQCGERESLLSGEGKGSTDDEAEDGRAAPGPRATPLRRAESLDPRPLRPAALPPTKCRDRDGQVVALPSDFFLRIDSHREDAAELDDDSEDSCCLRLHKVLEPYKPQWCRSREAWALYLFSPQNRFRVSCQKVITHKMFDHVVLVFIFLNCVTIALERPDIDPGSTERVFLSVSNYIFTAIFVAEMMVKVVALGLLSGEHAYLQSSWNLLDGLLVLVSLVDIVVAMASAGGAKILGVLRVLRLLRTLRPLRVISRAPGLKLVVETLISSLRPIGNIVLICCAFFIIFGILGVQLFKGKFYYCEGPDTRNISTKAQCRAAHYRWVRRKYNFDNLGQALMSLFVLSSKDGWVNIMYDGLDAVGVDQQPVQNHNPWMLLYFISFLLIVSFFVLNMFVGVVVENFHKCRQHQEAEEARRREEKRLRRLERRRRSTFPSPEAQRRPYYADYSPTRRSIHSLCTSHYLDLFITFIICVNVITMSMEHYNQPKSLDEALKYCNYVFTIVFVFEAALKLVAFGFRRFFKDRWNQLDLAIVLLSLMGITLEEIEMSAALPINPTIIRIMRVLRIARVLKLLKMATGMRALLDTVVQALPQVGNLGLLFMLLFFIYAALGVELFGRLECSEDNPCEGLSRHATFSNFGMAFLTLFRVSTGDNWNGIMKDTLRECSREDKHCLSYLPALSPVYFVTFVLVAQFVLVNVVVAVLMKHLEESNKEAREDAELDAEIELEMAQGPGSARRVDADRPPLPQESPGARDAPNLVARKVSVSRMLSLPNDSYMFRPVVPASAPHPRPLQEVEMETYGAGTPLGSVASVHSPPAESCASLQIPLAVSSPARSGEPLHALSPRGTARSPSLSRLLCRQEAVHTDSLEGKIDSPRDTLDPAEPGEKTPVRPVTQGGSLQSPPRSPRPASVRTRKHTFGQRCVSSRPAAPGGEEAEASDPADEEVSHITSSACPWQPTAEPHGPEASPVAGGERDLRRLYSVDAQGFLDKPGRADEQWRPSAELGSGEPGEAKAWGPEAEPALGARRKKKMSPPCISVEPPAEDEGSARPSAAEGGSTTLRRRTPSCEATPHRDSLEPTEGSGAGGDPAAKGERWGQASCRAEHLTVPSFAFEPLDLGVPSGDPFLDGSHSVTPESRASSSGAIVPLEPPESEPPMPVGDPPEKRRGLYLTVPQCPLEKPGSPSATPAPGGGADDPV
# ASSAY_NAME: FLIPR calcium flux assay, HEK293 cells recombinantly expressing Cav3.2
# PROTOCOL_CONDITIONS: Cav3.2-channel, Fluo-4-AM, 3 min incubation, stimulation with 10 mM CaCl2
// classify: if (IC50 < 40 nM) t else f

COMPOUND_STRUCTURE	ANSWER_LABEL
COc1ccc(Cn2ccc(NC(=O)Cc3ccc(N(C)CC4CC4)nc3)n2)cc1	f
Cn1ncc2ccc(CC(=O)Nc3ccn(Cc4cc(F)c(C#N)c(F)c4)n3)cc21	f
Cn1cc(C2CCC2)c2cc(CC(=O)Nc3ccn(Cc4ccc(C#N)cn4)n3)ccc21	t
Cc1nc(-c2ccc(CC(=O)Nc3ccn(Cc4ccc(F)c(F)c4)n3)cc2)no1	f
CCn1ncc2cc(CC(=O)Nc3ccn(Cc4ccc(C)c(C#N)n4)n3)ccc21	f
Cc1cn(C)c2ncc(CC(=O)Nc3ccn(Cc4ccc(C#N)cn4)n3)cc12	f
N#Cc1ccc(Cn2ccc(NC(=O)Cc3ccc(OC4CC(F)(F)C4)cc3)n2)cc1	t
Cn1ncc2ccc(CC(=O)Nc3ccn(Cc4ccc(F)c(C#N)c4)n3)cc21	f
Cc1cc(Cn2ccc(NC(=O)Cc3ccc(N(C)C)cc3)n2)ccc1F	t
CC(C)c1ccc(CC(=O)Nc2ccn(Cc3ccc(C#N)c(OCC(F)(F)F)n3)n2)cc1	f
Cn1ncc2ccc(CC(=O)Nc3ccn(Cc4ccc(F)c(F)c4)n3)cc21	t
COC1(c2ccc(CC(=O)Nc3ccn(Cc4ccc(C#N)cn4)n3)cc2)CC1	f
Cc1nn(C)c2ccc(CC(=O)Nc3ccn(Cc4cc(F)c(C#N)c(F)c4)n3)cc12	t
Cn1cc(C#N)c2cc(CC(=O)Nc3ccn(Cc4ccc(C#N)cn4)n3)ccc21	f
CC(C)c1ccc(CC(=O)Nc2ccn(Cc3ccc(F)cc3)n2)cc1	t
N#Cc1ccc(Cn2ccc(NC(=O)Cc3ccc(N4CCC(F)(F)C4)nc3)n2)nc1	f
N#Cc1ccc(Cn2ccc(NC(=O)Cc3ccc(N4CC[C@H](F)C4)nc3)n2)cc1	f
